Recorded melting point by entry

Example compounds with recorded melting point:
- structure-notation: "COc1ccc2c(c1Cl)S(=O)(=O)NN=C2C"
  melting point: "227 to 229 °C"
- structure-notation: "COc1ccc2c(c1)S(=O)(=O)NN=C2C"
  melting point: "174 to 176 °C"
- structure-notation: "COc1ccc2c(c1OC)S(=O)(=O)NN=C2C"
  melting point: "238 to 240 °C"
- structure-notation: "CCC1=NNS(=O)(=O)c2c1ccc(Cl)c2Cl"
  melting point: "238 to 239 °C"
- structure-notation: "COc1cccc2c1S(=O)(=O)NN=C2C"
  melting point: "194 to 197 °C"

Here's the next entry for you.
Prompt: Can you share its melting point? I mean this compound: "COc1ccc2c(c1Cl)S(=O)(=O)N(C)N=C2C"
Response: 151 to 152 °C
